B1: LINE1-full (parent)
chain: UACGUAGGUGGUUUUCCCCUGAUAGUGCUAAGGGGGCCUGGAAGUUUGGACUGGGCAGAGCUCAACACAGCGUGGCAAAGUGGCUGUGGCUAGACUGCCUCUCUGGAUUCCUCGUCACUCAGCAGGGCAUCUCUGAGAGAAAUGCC

- Variants of: B1
- Experiment Description: self-cleavage, relative activity (ratio to wild type); higher = more cleavage; in vitro, sequencing; the parent is a self-cleaving ribozyme
Class definitions on self-cleavage: 0: < 0.4; 1: ≥ 0.4 and < 0.9; 2: ≥ 0.9

Below, 3 variants whose answers are already recorded.
Exercise: Which of the defined bands does the recorded self-cleavage of G114A U119C sit within?
Solution: 2

Exercise: And for U96A U112A ?
Solution: 0

Exercise: And for U46G U91C ?
Solution: 1

---
Exercise: Which of the defined bands does the recorded self-cleavage of U47A A121C sit within?
Solution: 2

Exercise: And for A67U A136U ?
Solution: 0

Exercise: And for U102A C131U ?
Solution: 2

Exercise: And for U52C C56U ?
Solution: 0

Exercise: And for A69G A107G ?
Solution: 0

Exercise: And for A79U A124G ?
Solution: 1
